Listing of IC50 toward UniProtKB P25774, each taken from a published source.
Sequence (P25774 whole entry): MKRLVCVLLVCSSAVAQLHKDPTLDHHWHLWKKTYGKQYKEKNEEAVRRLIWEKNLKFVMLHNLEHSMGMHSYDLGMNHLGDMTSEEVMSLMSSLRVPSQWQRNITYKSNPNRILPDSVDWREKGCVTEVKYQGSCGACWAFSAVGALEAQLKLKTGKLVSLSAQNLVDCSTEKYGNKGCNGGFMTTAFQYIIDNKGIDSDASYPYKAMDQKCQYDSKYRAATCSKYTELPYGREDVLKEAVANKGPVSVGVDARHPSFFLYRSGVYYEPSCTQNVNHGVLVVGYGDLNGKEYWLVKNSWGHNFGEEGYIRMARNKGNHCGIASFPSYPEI
Rule: IC50 below 200 nM gives Fulfilled, anything at or above gives Not fulfilled.

Consider the following illustrative entries.
COC(=O)c1cccc(NC(=O)NC2CCN(c3ccnc(Nc4cc(OC)c(OC)c(OC)c4)n3)C2)c1 (stereo not given): Not fulfilled
COc1cc(Nc2nccc(N3CCC(NC(=O)c4cc5ccccc5s4)C3)n2)cc(OC)c1OC (stereo not given): Not fulfilled
COc1ccc(Nc2nccc(N3CCC(NC(=O)c4cccc(NC(C)=O)c4)C3)n2)cc1 (stereo not given): Not fulfilled
CS(=O)(=O)N1CCc2c(c(-c3ccc(Cl)c(C#Cc4ccc(CN[C@@H]5c6ccccc6C[C@@H]5O)cc4)c3)nn2CCCN2CCN(c3ccccc3)CC2)C1: Fulfilled
Cn1c(=O)n(C2CCN(CCCn3nc(-c4ccc(C(F)(F)F)cc4)c4c3CCN(C(=O)c3c[nH]cn3)C4)CC2)c2ccccc21: Fulfilled

Q: Strictly below 200 nM in IC50? CCOC(=O)CNC(=O)C(=O)C(COCc1ccccc1)NC(=O)C(CC1CCCCC1)NC(=O)c1cc(OC)ccc1[N+](=O)[O-] (stereo not given)
Ans: Fulfilled

Q: Strictly below 200 nM in IC50? COC(=O)c1cccc(NC(=O)NC2CCN(c3ccnc(Nc4ccc(F)cc4)n3)C2)c1 (stereo not given)
Ans: Not fulfilled

Q: Strictly below 200 nM in IC50? NC(=O)C(=O)N1CCc2c(c(-c3ccc(Cl)c(C#Cc4ccc(Cl)c(C(=O)N[C@@H](CO)c5ccccc5)c4)c3)nn2CCCN2CCSCC2)C1
Ans: Fulfilled

Q: Strictly below 200 nM in IC50? CC(C)C[C@@H](NC(=O)N1CCOCC1)C(=O)N[C@@H](C=CS(=O)(=O)c1ccccc1)CCc1ccccc1
Ans: Fulfilled

Q: Strictly below 200 nM in IC50? CC(C)CC(C(=O)NCC#N)c1cccc(-c2ccccn2)c1 (stereo not given)
Ans: Not fulfilled

Q: Strictly below 200 nM in IC50? COC(=O)C(NC(=O)NC1CCN(c2ccnc(Nc3ccc(F)cc3)n2)C1)c1ccccc1 (stereo not given)
Ans: Not fulfilled

Q: Strictly below 200 nM in IC50? COc1cc(Nc2nccc(N3CCC(NC(=O)c4cccc(C#N)c4)C3)n2)cc(OC)c1OC (stereo not given)
Ans: Fulfilled

Q: Strictly below 200 nM in IC50? CS(=O)(=O)N1CCc2c(c(-c3ccc(Cl)c(C#Cc4ccc(C=O)cc4)c3)nn2CCCN2CCOCC2)C1
Ans: Fulfilled

Q: Strictly below 200 nM in IC50? NC(=O)N1CCc2c(c(-c3ccc(Cl)c(C#Cc4ccc(Cl)c(CN5CCOCC5)c4)c3)nn2CCCN2CCCCC2)C1
Ans: Fulfilled

Q: Strictly below 200 nM in IC50? CC(=O)NC1CCN(CCCn2nc(-c3ccc(C(F)(F)F)c(SCCO)c3)c3c2CCN(S(C)(=O)=O)C3)CC1
Ans: Not fulfilled
